Reference source: patent US4362743A

test: in vivo; conditions: mouse, sc, 50 mg/kg
Listing of recorded concentration at 0.75 h by entry.
Give just the numeric value; ng/mL need not be written.

C/C(=C\C(=O)OCCCCCC=NN(C)C)C[C@@H]1OC[C@H](C[C@@H]2O[C@H]2[C@@H](C)[C@H](C)O)[C@@H](O)[C@H]1O [Example 6, 6-Dimethylhydrazonohexyl monate A]; 3800
C/C(=C\C(=O)OC1CCC(=NO)CC1)C[C@@H]1OC[C@H](C[C@@H]2O[C@H]2[C@@H](C)[C@H](C)O)[C@@H](O)[C@H]1O (stereo partly drawn) [Example 3, 4-Hydroxyiminocyclohexyl monate A]; 2900

Here's the next entry for you.
Which concentration at 0.75 h is listed for C/C(=C\C(=O)OCCCC(=NO)c1ccccc1)C[C@@H]1OC[C@H](C[C@@H]2O[C@H]2[C@@H](C)[C@H](C)O)[C@@H](O)[C@H]1O [Example 1, 4-Hydroxyimino-4-phenylbutyl monate A] ? 460

---

# reported concentration at 5 min; entries follow
experiment: in vivo; conditions: mouse, sc, 50 mg/kg
// note: answer is a bare numeric in ng/mL

Worked cases, answers included:
C/C(=C\C(=O)OCCCC(=NO)c1ccccc1)C[C@@H]1OC[C@H](C[C@@H]2O[C@H]2[C@@H](C)[C@H](C)O)[C@@H](O)[C@H]1O [Example 1, 4-Hydroxyimino-4-phenylbutyl monate A]; 4400
C/C(=C\C(=O)OCCCCCC=NN(C)C)C[C@@H]1OC[C@H](C[C@@H]2O[C@H]2[C@@H](C)[C@H](C)O)[C@@H](O)[C@H]1O [Example 6, 6-Dimethylhydrazonohexyl monate A]; 12100

Now turn to the next compound.
Using the record for C/C(=C\C(=O)OC1CCC(=NO)CC1)C[C@@H]1OC[C@H](C[C@@H]2O[C@H]2[C@@H](C)[C@H](C)O)[C@@H](O)[C@H]1O (stereo partly drawn) [Example 3, 4-Hydroxyiminocyclohexyl monate A] , report its concentration at 5 min. 20600

---

test system: Past. multocida PA1
parameter_measured: MIC (µg/mL)
Output spec: scalar in µg/mL, unitless text.

Example cases with answers are listed next.
C/C(=C\C(=O)OCCCC(=NO)c1ccccc1)C[C@@H]1OC[C@H](C[C@@H]2O[C@H]2[C@@H](C)[C@H](C)O)[C@@H](O)[C@H]1O [Example 1, 4-Hydroxyimino-4-phenylbutyl monate A]; 2.5
C/C(=C\C(=O)OCCCC(=NO)c1cccs1)C[C@@H]1OC[C@H](C[C@@H]2O[C@H]2[C@@H](C)[C@H](C)O)[C@@H](O)[C@H]1O; 2.5

Okay, now this compound:
Param readout= MIC; system= Past. multocida PA1; entry= C/C(=C\C(=O)OCCCC(=NNC(N)=O)c1ccccc1)C[C@@H]1OC[C@H](C[C@@H]2O[C@H]2[C@@H](C)[C@H](C)O)[C@@H](O)[C@H]1O [Example 2, 4-Phenyl-4-semicarbazonobutyl monate A] ; returns value. 20

---

test system: Pasteurella multocida 1633; experiment: Human bacteria MIC; type: cell-based; settings: Pasteurella multocida 1633; nutrient agar, 5% chocolated horse blood, 18 hours 37° C.; read-out: M.I.C.
Items are presented alongside their recorded MIC.
Only the number, expressed in µg/mL, is required.

Solved entries (count: 3):
C/C(=C\C(=O)OCc1ccc(C=NO)o1)C[C@@H]1OC[C@H](C[C@@H]2O[C@H]2[C@@H](C)[C@H](C)O)[C@@H](O)[C@H]1O [Example 7, 5-Hydroxyiminomethylfurfuryl monate A]; 2.5
C/C(=C\C(=O)OCCCC(=NO)c1ccccc1)C[C@@H]1OC[C@H](C[C@@H]2O[C@H]2[C@@H](C)[C@H](C)O)[C@@H](O)[C@H]1O [Example 1, 4-Hydroxyimino-4-phenylbutyl monate A]; 5
C/C(=C\C(=O)OCCCC(=NO)c1cccs1)C[C@@H]1OC[C@H](C[C@@H]2O[C@H]2[C@@H](C)[C@H](C)O)[C@@H](O)[C@H]1O; 5

Next compound, MIC to be filled in.
For C/C(=C\C(=O)OCCCC(=NNC(N)=O)c1ccccc1)C[C@@H]1OC[C@H](C[C@@H]2O[C@H]2[C@@H](C)[C@H](C)O)[C@@H](O)[C@H]1O [Example 2, 4-Phenyl-4-semicarbazonobutyl monate A] , what is its reported MIC? 10

---

assay: Mean serum concentrations in neonatal piglets after intramuscular or oral administration; type: in vivo; settings: pig, po, 50 mg/kg, 1h
parameter_measured: concentration at 1 h (ng/mL)
Answer with a number only, understood to be in ng/mL.

# concentration at 1 h lookup, item C/C(=C\C(=O)OCCCC(=NO)c1ccccc1)C[C@@H]1OC[C@H](C[C@@H]2O[C@H]2[C@@H](C)[C@H](C)O)[C@@H](O)[C@H]1O [Example 1, 4-Hydroxyimino-4-phenylbutyl monate A] 1200

---

test system: Staph. aureus 152 (pen. sens)
parameter_measured: MIC (µg/mL)
Answer with a number only, understood to be in µg/mL.

Observe how each entry below is paired with its result.
CON=C(CCCOC(=O)/C=C(\C)C[C@@H]1OC[C@H](C[C@@H]2O[C@H]2[C@@H](C)[C@H](C)O)[C@@H](O)[C@H]1O)c1ccccc1 [Example 5, 4-Methoxyimino-4-phenylbutyl monate A]; 0.625
C/C(=C\C(=O)OCCCC(=NO)c1ccccc1)C[C@@H]1OC[C@H](C[C@@H]2O[C@H]2[C@@H](C)[C@H](C)O)[C@@H](O)[C@H]1O [Example 1, 4-Hydroxyimino-4-phenylbutyl monate A]; 0.625

Moving on to another molecule below.
Write down the reported MIC of C/C(=C\C(=O)OC1CCC(=NO)CC1)C[C@@H]1OC[C@H](C[C@@H]2O[C@H]2[C@@H](C)[C@H](C)O)[C@@H](O)[C@H]1O (stereo partly drawn) [Example 3, 4-Hydroxyiminocyclohexyl monate A] , test system: Staph. aureus 152 (pen. sens). 1.25

---

system: Staph. aureus Oxford; assay: Human bacteria MIC; type: cell-based; conditions: Staphylococcus aureus; Staph. aureus Oxford; nutrient agar, 5% chocolated horse blood, 18 hours 37° C.; read-out: M.I.C.
parameter_measured: MIC (µg/mL)
Give just the number in µg/mL; leave the unit off.

The following molecules have reported results that may help.
C/C(=C\C(=O)OC1CCC(=NO)CC1)C[C@@H]1OC[C@H](C[C@@H]2O[C@H]2[C@@H](C)[C@H](C)O)[C@@H](O)[C@H]1O (stereo partly drawn) [Example 3, 4-Hydroxyiminocyclohexyl monate A]; 2.5
C/C(=C\C(=O)OCCCC(=NNC(N)=O)c1ccccc1)C[C@@H]1OC[C@H](C[C@@H]2O[C@H]2[C@@H](C)[C@H](C)O)[C@@H](O)[C@H]1O [Example 2, 4-Phenyl-4-semicarbazonobutyl monate A]; 5

Recorded MIC for C/C(=C\C(=O)OCCCC(=NO)c1ccccc1)C[C@@H]1OC[C@H](C[C@@H]2O[C@H]2[C@@H](C)[C@H](C)O)[C@@H](O)[C@H]1O [Example 1, 4-Hydroxyimino-4-phenylbutyl monate A] , please? 2.5

If you can, please state the reported MIC value of C/C(=C\C(=O)OCc1ccc(C=NO)o1)C[C@@H]1OC[C@H](C[C@@H]2O[C@H]2[C@@H](C)[C@H](C)O)[C@@H](O)[C@H]1O [Example 7, 5-Hydroxyiminomethylfurfuryl monate A] . 2.5

Which MIC value belongs to CON=C(CCCOC(=O)/C=C(\C)C[C@@H]1OC[C@H](C[C@@H]2O[C@H]2[C@@H](C)[C@H](C)O)[C@@H](O)[C@H]1O)c1ccccc1 [Example 5, 4-Methoxyimino-4-phenylbutyl monate A] ? 1

Would you kindly share the measured MIC for "C/C(=C\C(=O)OCCCC(=NO)c1cccs1)C[C@@H]1OC[C@H](C[C@@H]2O[C@H]2[C@@H](C)[C@H](C)O)[C@@H](O)[C@H]1O" ? 1

---

test system: M. suipneumoniae NCTC 10110; test: Anti-mycoplasmal activity in vitro MIC; assay type: cell-based; details: Mesomycoplasma hyopneumoniae, NCTC10110, 144 h; M. suipneumoniae NCTC 10110; Friis broth, 0.9% agarose, 6 days 37° C.; read-out: M.I.C.
# reported MIC; entries follow
// note: answer is a bare numeric in µg/mL

Here's what some known entries look like.
C/C(=C\C(=O)OCCCC(=NO)c1ccccc1)C[C@@H]1OC[C@H](C[C@@H]2O[C@H]2[C@@H](C)[C@H](C)O)[C@@H](O)[C@H]1O [Example 1, 4-Hydroxyimino-4-phenylbutyl monate A]; 0.25
C/C(=C\C(=O)OC1CCC(=NO)CC1)C[C@@H]1OC[C@H](C[C@@H]2O[C@H]2[C@@H](C)[C@H](C)O)[C@@H](O)[C@H]1O (stereo partly shown) [Example 3, 4-Hydroxyiminocyclohexyl monate A]; 0.5

Give its MIC value. Item: C/C(=C\C(=O)OCc1cccc(C=NO)c1)C[C@@H]1OC[C@H](C[C@@H]2O[C@H]2[C@@H](C)[C@H](C)O)[C@@H](O)[C@H]1O [Example 8, m-Hydroxyiminomethylbenzyl monate A] 0.5

Please report the recorded MIC for C/C(=C\C(=O)OCCCCCC=NN(C)C)C[C@@H]1OC[C@H](C[C@@H]2O[C@H]2[C@@H](C)[C@H](C)O)[C@@H](O)[C@H]1O [Example 6, 6-Dimethylhydrazonohexyl monate A] . 0.5
